Reported pIC50 is given for each of the following compounds.
assayedSystem: recombinant human transglutaminase 2 (Homo sapiens, UniProt P21980)
Sequence (P21980 whole entry): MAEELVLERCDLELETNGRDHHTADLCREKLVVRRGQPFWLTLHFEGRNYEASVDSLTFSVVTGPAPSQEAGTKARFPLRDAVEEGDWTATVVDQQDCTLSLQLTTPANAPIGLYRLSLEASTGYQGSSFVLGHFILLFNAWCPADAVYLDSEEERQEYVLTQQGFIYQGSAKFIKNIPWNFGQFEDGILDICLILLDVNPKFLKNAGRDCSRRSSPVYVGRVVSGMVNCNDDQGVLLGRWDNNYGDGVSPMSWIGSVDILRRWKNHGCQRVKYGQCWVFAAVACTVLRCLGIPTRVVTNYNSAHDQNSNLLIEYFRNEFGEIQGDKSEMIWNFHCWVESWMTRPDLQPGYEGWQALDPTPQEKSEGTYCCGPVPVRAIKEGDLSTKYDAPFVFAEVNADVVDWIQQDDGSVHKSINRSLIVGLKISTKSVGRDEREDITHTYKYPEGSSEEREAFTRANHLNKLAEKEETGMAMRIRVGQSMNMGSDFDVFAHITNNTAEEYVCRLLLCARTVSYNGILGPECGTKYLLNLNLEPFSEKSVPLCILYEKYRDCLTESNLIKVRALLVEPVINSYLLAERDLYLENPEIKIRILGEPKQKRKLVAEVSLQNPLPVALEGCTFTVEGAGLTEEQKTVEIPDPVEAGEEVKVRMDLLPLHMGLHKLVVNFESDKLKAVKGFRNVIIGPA
assay: Transglutaminase assay: incorporation of dansylcadaverine into dimethylcasein (DCC-assay)
Type: biochemical
conditionNotes: recombinant human TG2 10 nM, dansylcadaverine/dimethylcasein; read-out: IC50 TG2
pIC50: −log10 of the molar value.

These recorded examples may help you get a feel for the data.
- querySmiles: "CCNC(=O)C(=O)CC[C@H](NC(=O)c1cncn1C)C(=O)Nc1cccn(CC(=O)NC[C@@H]2CC[C@H]3C[C@@H]2C3(C)C)c1=O"
  assayedSystem: "recombinant human transglutaminase 2 (Homo sapiens, UniProt P21980)"
  pIC50: "5.46 to 6.22"
- querySmiles: "CCNC(=O)C(=O)CC[C@H](NC(=O)c1cnc(Cl)n1C)C(=O)Nc1cccn(CC(=O)NC23CC4(C)CC(C)(CC(C)(C4)C2)C3)c1=O"
  assayedSystem: "recombinant human transglutaminase 2 (Homo sapiens, UniProt P21980)"
  pIC50: "> 6.82"
- querySmiles: "CCNC(=O)C(=O)CC[C@H](NC(=O)c1cnc(Cl)n1C)C(=O)Nc1cccn(CC(=O)NC23CC4CC(C)(CC(C)(C4)C2)C3)c1=O"
  assayedSystem: "recombinant human transglutaminase 2 (Homo sapiens, UniProt P21980)"
  pIC50: "6.22 to 6.82"

Okay, now this compound:
Fill blank: measured pIC50 of the compound CCNC(=O)C(=O)CC[C@H](NC(=O)c1cncc([N+](=O)[O-])c1)C(=O)Nc1cccn(CC(=O)NCC23CC4CC(CC(C4)C2)C3)c1=O is ____. > 6.82
